Attribute: MIC
System: Acinetobacter baumannii
Assay: Antimicrobial activity against wild type Acinetobacter baumannii by broth dilution assay
Format: functional

Solved entries (count: 3):
SMILES_ENTRY: C[C@@H](N)[C@@H](NC(=O)N1CCN(c2ccc(C#Cc3ccccc3)cc2)CC1)C(=O)NO
MIC: 25 µg/mL

SMILES_ENTRY: C[C@@H](O)[C@@H](NC(=O)N1CCC(c2ccc(-c3ccccc3)cc2)CC1)C(=O)NO
MIC: > 100 µg/mL

SMILES_ENTRY: C[C@@H](O)[C@@H](NC(=O)c1ccc(C#Cc2ccccc2)cc1)C(=O)NO
MIC: > 20 µg/mL

Now look at this one.
Exam item: Could you tell me which MIC is on file for "CC(C)(O)[C@@H](NC(=O)N1CCN(c2ccc(C#Cc3ccccc3)cc2)CC1)C(=O)NO" ?
Marked response: > 50 µg/mL

---

Assay: Inhibition of Aquifex aeolicus LpxC
VALUE_KIND: Kd (nM)
Field format: number, assumed nM, no unit text.

Exam item: Could you tell me which Kd is on file for "CCCCCCCOc1cccc(C(=O)O)c1" ?
Marked response: 2000

---

Molecular target: UDP-3-O-acyl-N-acetylglucosamine deacetylase (Escherichia coli K-12, UniProt P0A725)
Sequence (P0A725 whole entry): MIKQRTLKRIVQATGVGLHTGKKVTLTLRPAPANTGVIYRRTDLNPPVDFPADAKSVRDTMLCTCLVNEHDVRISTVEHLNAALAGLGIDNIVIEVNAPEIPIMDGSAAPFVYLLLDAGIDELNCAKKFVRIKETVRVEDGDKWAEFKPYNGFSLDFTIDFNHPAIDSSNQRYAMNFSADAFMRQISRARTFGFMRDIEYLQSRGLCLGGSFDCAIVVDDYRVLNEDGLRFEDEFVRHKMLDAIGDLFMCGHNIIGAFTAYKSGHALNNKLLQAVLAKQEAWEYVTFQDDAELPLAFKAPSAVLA
Assay: Inhibition of Escherichia coli LpxC
VALUE_KIND: pKi
The read-out pKi is expressed as -log10 of concentration in moles per litre.

Exam item: Field: pKi (UDP-3-O-acyl-N-acetylglucosamine deacetylase (Escherichia coli K-12, UniProt P0A725)). Entry: "CCCc1cc(C2=N[C@@H](C(=O)NO)CO2)cc(OC)c1OC"
Marked response: 7.30

Exam item: Field: pKi (UDP-3-O-acyl-N-acetylglucosamine deacetylase (Escherichia coli K-12, UniProt P0A725)). Entry: "CCCCCCCCCCCCCC(=O)O[C@@H]1[C@@H](CC(=O)NO)CO[C@H](CO)[C@H]1O"
Marked response: 6.19

---

Attribute: MIC
System: Escherichia coli
Test: Antimicrobial activity against ESBL producing Escherichia coli by broth dilution assay
Type: functional
Field format: number, assumed µg/mL, no unit text.

Solved entries (count: 3):
SMILES_ENTRY: C[C@@H](O)[C@@H](NC(=O)c1ccc(C#Cc2ccccc2)cc1)C(=O)NO
UNITS_TEXT: µg/mL
MIC: 0.313
--
SMILES_ENTRY: C[C@@H](N)[C@@H](NC(=O)N1CCN(c2ccc(C#Cc3ccccc3)cc2)CC1)C(=O)NO
UNITS_TEXT: µg/mL
MIC: 1.56
--
SMILES_ENTRY: CC(C)(O)[C@@H](NC(=O)N1CCN(c2ccc(C#Cc3ccccc3)cc2)CC1)C(=O)NO
UNITS_TEXT: µg/mL
MIC: 1.56

Now look at this one.
Exam item: Could you tell me which MIC is on file for "C[C@@H](O)[C@@H](NC(=O)N1CCC(c2ccc(-c3ccccc3)cc2)CC1)C(=O)NO" ?
Marked response: 3.13

---

The listing below reports pIC50 for compounds tested on UDP-3-O-acyl-N-acetylglucosamine deacetylase (Escherichia coli K-12).
The read-out pIC50 is expressed as -log10 of concentration in moles per litre.

Solved entries (count: 3):
COMPOUND: C[C@@H](O)[C@@H](NC(=O)N1CCN(c2ccc(C#Cc3ccc(CC#N)cc3)cc2)CC1)C(=O)NO
MEASUREMENT_TARGET: UDP-3-O-acyl-N-acetylglucosamine deacetylase (Escherichia coli K-12)
pIC50: 7.96
--
COMPOUND: C[C@@H](O)[C@@H](NC(=O)N1CCN(c2ccc(C#Cc3ccc(CN4CCOCC4)cc3)cc2)CC1)C(=O)NO
MEASUREMENT_TARGET: UDP-3-O-acyl-N-acetylglucosamine deacetylase (Escherichia coli K-12)
pIC50: 7.85
--
COMPOUND: C[C@@H](N)[C@@H](NC(=O)N1CCN(c2ccc(C#Cc3ccccc3)cc2)CC1)C(=O)NO
MEASUREMENT_TARGET: UDP-3-O-acyl-N-acetylglucosamine deacetylase (Escherichia coli K-12)
pIC50: 9.22

Exam item: Could you tell me which pIC50 is on file for "C[C@@H](O)[C@@H](NC(=O)N1CCN(c2ccc(C#Cc3ccccc3)cc2)CC1)C(=O)NO" ?
Marked response: 8.62

Exam item: Could you tell me which pIC50 is on file for C[C@@H](O)[C@@H](NC(=O)N1CCCC(c2ccc(C#Cc3ccccc3)cc2)C1)C(=O)NO (stereo partly drawn) ?
Marked response: 6.41

Exam item: Could you tell me which pIC50 is on file for "C[C@@H](O)[C@@H](NC(=O)N1CCN(c2ccc(C#Cc3ccc(F)cc3)cc2)CC1)C(=O)NO" ?
Marked response: 8.15

Exam item: Could you tell me which pIC50 is on file for "C[C@@H](O)[C@H](C(=O)NO)N1Cc2cc(C#Cc3ccc(-c4ccccc4)cc3)ccc2C1=O" ?
Marked response: 7.89

Exam item: Could you tell me which pIC50 is on file for "C[C@@H](O)[C@@H](NC(=O)N1CCN(c2ccc(C#Cc3ccc(O)cc3)cc2)CC1)C(=O)NO" ?
Marked response: 8.40
